target of assay: SIRT1 (Homo sapiens, UniProt Q96EB6)
Sequence (Q96EB6 whole entry): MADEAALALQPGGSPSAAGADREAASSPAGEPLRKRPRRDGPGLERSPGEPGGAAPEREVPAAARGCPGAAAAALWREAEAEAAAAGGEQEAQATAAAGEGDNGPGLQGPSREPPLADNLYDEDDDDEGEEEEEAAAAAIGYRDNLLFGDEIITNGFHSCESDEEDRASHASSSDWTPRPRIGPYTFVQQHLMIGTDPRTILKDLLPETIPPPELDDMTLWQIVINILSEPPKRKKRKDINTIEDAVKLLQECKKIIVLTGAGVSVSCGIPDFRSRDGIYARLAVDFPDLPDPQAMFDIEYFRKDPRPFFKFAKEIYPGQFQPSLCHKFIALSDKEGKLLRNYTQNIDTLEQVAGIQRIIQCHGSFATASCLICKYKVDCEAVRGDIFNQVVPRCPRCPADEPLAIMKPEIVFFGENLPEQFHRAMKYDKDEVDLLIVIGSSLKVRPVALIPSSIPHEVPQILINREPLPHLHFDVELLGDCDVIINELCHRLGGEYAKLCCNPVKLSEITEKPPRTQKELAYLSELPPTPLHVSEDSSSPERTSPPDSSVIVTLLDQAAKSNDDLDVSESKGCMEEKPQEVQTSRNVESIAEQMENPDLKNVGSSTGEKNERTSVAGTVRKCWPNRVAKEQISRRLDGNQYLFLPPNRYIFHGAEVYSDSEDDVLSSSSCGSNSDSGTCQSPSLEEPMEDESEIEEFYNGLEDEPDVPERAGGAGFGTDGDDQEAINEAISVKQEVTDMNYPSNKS
test details: Trp mass spectrometry assay of SIRT1 activity
Format: biochemical
condition context: Trp assay; percent maximum fold activation; read-out: Trp % Fold Act
Measured Emax by item

Some compounds with known Emax results, for comparison:
compound | metric name | result
O=C(Nc1ccccn1)c1cnn2ccc(N3CCCC3C(F)(F)F)nc12 (centres unmarked) [Compound 999] | Emax | ≥ 350%
Cc1nc(NC(=O)c2cnn3ccc(N4CCCCC4C(F)(F)F)nc23)sc1C (centres unmarked) [Compound 965] | Emax | ≥ 350%
CC(C)c1csc(C(=O)Nc2cnc3ccc(-c4ccccc4C(F)(F)F)nn23)n1 [Compound 272] | Emax | < 350%
O=C(Nc1cnn2ccc(-c3ccccc3C(F)(F)F)nc12)c1cnc(O)cn1 [Compound 828] | Emax | < 350%
Cc1cc2ncc(C(=O)Nc3ccncc3)n2nc1-c1ccccc1C(F)(F)F [Compound 223] | Emax | ≥ 350%

Give the measured Emax of O=C(Nc1cnccn1)c1cnc2ccc(N3CC(F)(F)C3)nn12 [Compound 926] . < 350%

Entry to check: O=C(Nc1ncccn1)c1cnn2ccc(-c3ccccc3C(F)(F)F)nc12 [Compound 266] < 350%

Entry to check: Cc1cc(C)nc(NC(=O)c2c(C)nc3ccc(-c4cccc(OC[C@H](O)CO)c4)nn23)c1 [Compound 791] < 350%
